Values from patent US10221190B2

System: SK-MEL-28 cells
ASSAY_NAME: Inhibitory activity against cancer cells (MTT cell viability), SK-MEL-28
Format: cell-based
MEASUREMENT_SETUP: Homo sapiens, SK-MEL-28, 48 hr incubation
Recorded measurements of pIC50, one per entry
Remember the convention: pIC50 equals -log10 of concentration in molar.

Sample Cl.N=C(NC(=N)N1CCC(O)CC1)Nc1ccc(OC(F)(F)F)cc1 [Example 18] ; pIC50 observed: 3.74

Sample [H]/N=C(/N)N/C(=N/[H])NCCc1ccccc1 [Phenformin, phenformin, reference compound] ; pIC50 observed: 3.58

Sample Cl.N=C(NC(=N)N1CCC(CO)C1)Nc1ccc(OC(F)(F)F)cc1 (stereo not shown) [Example 20] ; pIC50 observed: 3.87

Sample N=C(NC(=N)N1CC[C@H](O)C1)Nc1ccc(OC(F)(F)F)cc1 [Example 17] ; pIC50 observed: 3.74

Sample N=C(NC(=N)N1CCCC1)Nc1ccc(SCC(=O)N2CCCCC2)cc1 [Example 28] ; pIC50 observed: 3.75

Sample N=C(NC(=N)N1CCCC1)Nc1ccc2c(c1)CCCC2 [Example 14] ; pIC50 observed: 4.53

Sample N=C(NCc1ccc2c(c1)OCO2)NC(=N)N1CCCC1 [Example 1] ; pIC50 observed: 3.97

---

Tested on: lung cancer cell line A549
ASSAY_NAME: Inhibitory activity on Oxygen Consumption Rate (OCR)
Format: cell-based
MEASUREMENT_SETUP: A549, 3 hrs, 10 uM compound; phenformin set to 100%, untreated control set to 0%
Recorded measurements of OCR inhibition relative to phenformin (%), one per entry
Record the value in %, omitting the unit from your answer.

// below: answered compounds
{"columns": ["COMPOUND", "STUDY_TARGET", "MEASURED_RESULT"],
 "data": [
  ["Cl.N=C(NC(=N)N1CCc2ccccc2C1)N1CCCC1", "lung cancer cell line A549", 44],
  ["C[C@H]1CCCN1C(=N)NC(=N)Nc1ccc(OC(F)(F)F)cc1.Cl", "lung cancer cell line A549", 13]
]}

Sample Cl.N=C(NC(=N)N1CCC(CO)C1)Nc1ccc(OC(F)(F)F)cc1 (stereo not shown) ; OCR inhibition relative to phenformin (%) observed: 15

Sample `Cl.N=C(NC(=N)N1CCC(O)CC1)Nc1ccc(OC(F)(F)F)cc1` ; OCR inhibition relative to phenformin (%) observed: 57

Sample `CC(C)c1ccc(NC(=N)NC(=N)N2CCCC2)cc1.Cl` ; OCR inhibition relative to phenformin (%) observed: 44

Sample `Cl.N=C(NC(=N)N1CCC(O)CC1)Nc1cccc(Oc2ccccc2)c1` ; OCR inhibition relative to phenformin (%) observed: 74

Sample `CN1CCN(C(=N)NC(=N)Nc2ccc(F)c(OC(F)(F)F)c2)CC1.Cl` ; OCR inhibition relative to phenformin (%) observed: 42.9

---

System: SK-MEL-28 cells
ASSAY_NAME: Inhibitory activity against cancer cells (MTT cell viability), SK-MEL-28
Type: cell-based
MEASUREMENT_SETUP: Homo sapiens, SK-MEL-28, 48 hr incubation
pIC50: −log10 of the molar value.
Recorded measurements of pIC50, one per entry

// below: answered compounds
{"columns": ["COMPOUND", "STUDY_TARGET", "MEASURED_RESULT"],
 "data": [
  ["N=C(NC(=N)N1CCCC1)Nc1ccc(/C=C/C(=O)N2CCCCC2)cc1", "SK-MEL-28 cells", "< 4.00"],
  ["N=C(NC(=N)N1CCCC1)Nc1ccc(C(N)=O)cc1 [Example 23, N1-pyrrolidine-N5-4-benzamide biguanide]", "SK-MEL-28 cells", "< 3.00"]
]}

Now, please, on to the next compound.
Sample `CS(=O)(=O)C1CCN(C(=N)NC(=N)Nc2ccc(OC(F)(F)F)cc2)CC1` ; pIC50 observed: < 4.00
